# measured on: CDK2 (Homo sapiens)
# Construct: endogenous in cells; host or cells: OVCAR3 cells
# assay remarks: Phospho-RB measurement in OVCAR3 cells (HTRF phospho-RB cellular kit)
# Format: cell-based
# condition description: inhibition of RB phosphorylation at S807/811 (HTRF, TR-FRET ratio 665/620), 24 h compound treatment, 0.3 to 10,000 nM
pIC50: −log10 of the molar value.
Quick list: pIC50 per entry.
endpoint: pIC50

>  <compound smiles>
CC(C)(C)c1nc(-c2cccc(NS(=O)(=O)N3CCc4cc(C#N)ccc43)c2F)c(-c2ccnc(NC3CCN(S(C)(=O)=O)CC3)n2)s1

>  <quantitative result>
6.52

$$$$
>  <compound smiles>
CN1CCN(S(=O)(=O)N2CCC(Nc3nccc(-c4sc(C(C)(C)C)nc4-c4cccc(NS(=O)(=O)N5Cc6ccncc6C5)c4F)n3)CC2)CC1

>  <quantitative result>
6.79

$$$$
>  <compound smiles>
CC(C)(C)c1nc(-c2cccc(NS(=O)(=O)N3CCC(Oc4ccccc4)CC3)c2F)c(-c2ccnc(NC3CCN(S(C)(=O)=O)CC3)n2)s1

>  <quantitative result>
6.23

$$$$
>  <compound smiles>
CC1(c2nc(-c3cccc(NS(=O)(=O)N4CCc5ccc(C#N)cc54)c3F)c(-c3ccnc(NC4CC5(C4)CS(=O)(=O)C5)n3)s2)CCOCC1

>  <quantitative result>
7.49

$$$$
>  <compound smiles>
CN(C)S(=O)(=O)Nc1cccc(-c2nc(C(C)(C)C)sc2-c2ccnc(NC3CCN(S(=O)(=O)N4CCNCC4)CC3)n2)c1F

>  <quantitative result>
6.34

$$$$
>  <compound smiles>
CS(=O)(=O)CC12CC(Nc3nccc(-c4sc(C56CC(C5)C6)nc4-c4cccc(NS(=O)(=O)N5CCc6ccc(Cl)cc65)c4F)n3)(C1)C2

>  <quantitative result>
7.15

$$$$

---

Quick list: pIC50 per entry.
# measured on: CDK2 (Homo sapiens)
# Construct: endogenous in cells; host or cells: OVCAR3 cells
# assay remarks: Phospho-RB measurement in OVCAR3 cells (HTRF phospho-RB cellular kit)
# Type: cell-based
# condition description: inhibition of RB phosphorylation at S807/811 (HTRF, TR-FRET ratio 665/620), 24 h compound treatment, 0.3 to 10,000 nM
pIC50: −log10 of the molar value.
endpoint: pIC50

>  <compound smiles>
CC(C)(C)c1nc(-c2cccc(NS(=O)(=O)N3Cc4cccc(Oc5ccc(F)cc5)c4C3)c2F)c(-c2ccnc(NC3CC4(C3)CS(=O)(=O)C4)n2)s1

>  <quantitative result>
6.22

$$$$
>  <compound smiles>
COc1cccc2c1CN(S(=O)(=O)Nc1cccc(-c3nc(C45CC(C4)C5)sc3-c3ccnc(NC4CC5(C4)CS(=O)(=O)C5)n3)c1F)C2

>  <quantitative result>
6.87

$$$$
>  <compound smiles>
Cn1ncc2c1CN(S(=O)(=O)Nc1cccc(-c3nc(C(C)(C)C)sc3-c3ccnc(NC4CCN(S(C)(=O)=O)CC4)n3)c1F)C2

>  <quantitative result>
6.40

$$$$

---

# measured on: CDK2 (Homo sapiens, UniProt P24941)
# Construct: endogenous in cells; host or cells: OVCAR3 cells
# assay remarks: Phospho-RB measurement in OVCAR3 cells (HTRF phospho-RB cellular kit)
# Format: cell-based
# condition description: inhibition of RB phosphorylation at S807/811 (HTRF, TR-FRET ratio 665/620), 24 h compound treatment, 0.3 to 10,000 nM
pIC50: −log10 of the molar value.

>  <compound>
CC(C)(C)c1nc(-c2cccc(NS(=O)(=O)N3CCC4(CC4)C3)c2F)c(-c2ccnc(NC3CCN(S(C)(=O)=O)CC3)n2)s1 [Example 166]

>  <pIC50>
6.56

$$$$
>  <compound>
CNCCOc1cccc2c1CCN2S(=O)(=O)Nc1cccc(-c2nc(C(C)(C)C)sc2-c2ccnc(NC3CCN(S(C)(=O)=O)CC3)n2)c1F [Example 181]

>  <pIC50>
5.72

$$$$
>  <compound>
CC(C)(C)c1nc(-c2cccc(NS(=O)(=O)N3CCC4(CCC4)C3)c2F)c(-c2ccnc(NC3CCN(S(=O)(=O)N4CCNCC4)CC3)n2)s1 [Example 177]

>  <pIC50>
5.99

$$$$
>  <compound>
CC(C)(C)c1nc(-c2cccc(NS(=O)(=O)N3CCc4c3cccc4C(C)(C)O)c2F)c(-c2ccnc(NC3CC4(C3)CS(=O)(=O)C4)n2)s1 [Example 230]

>  <pIC50>
6.45

$$$$
>  <compound>
CC(C)(C)c1nc(-c2cccc(NS(=O)(=O)N3CCc4ccccc4CC3)c2F)c(-c2ccnc(NC3CCN(S(C)(=O)=O)CC3)n2)s1 [Example 81]

>  <pIC50>
5.43

$$$$
>  <compound>
O=S1(=O)CC2(CC(Nc3nccc(-c4sc(N5C6CCC5CN(CC(F)(F)F)C6)nc4-c4cccc(NS(=O)(=O)N5CCc6ccccc65)c4F)n3)C2)C1 [Example 38]

>  <pIC50>
6.58

$$$$
>  <compound>
CC(C)(C)c1nc(-c2cccc(NS(=O)(=O)N3CCc4ccc(C(N)=O)cc43)c2F)c(-c2ccnc(NC3CCN(S(C)(=O)=O)CC3)n2)s1 [Example 168]

>  <pIC50>
5.80

$$$$
>  <compound>
CC(C)(C)c1nc(-c2cccc(NS(=O)(=O)N3CCOc4ccccc43)c2F)c(-c2ccnc(NC3CCN(S(C)(=O)=O)CC3)n2)s1 [Example 98]

>  <pIC50>
6.29

$$$$

---

# measured on: CDK2 (Homo sapiens)
# Construct: endogenous in cells; host or cells: OVCAR3 cells
# assay remarks: Phospho-RB measurement in OVCAR3 cells (HTRF phospho-RB cellular kit)
# Assay type: cell-based
# condition description: inhibition of RB phosphorylation at S807/811 (HTRF, TR-FRET ratio 665/620), 24 h compound treatment, 0.3 to 10,000 nM
Quick list: IC50 per entry.

>  <compound>
CC(C)(C)c1nc(-c2cccc(NS(=O)(=O)N3CCc4c(CO)cccc43)c2F)c(-c2ccnc(NC3CC4(C3)CS(=O)(=O)C4)n2)s1 [Example 216]

>  <prefix operator>
=

>  <IC50 / nM>
65.4

$$$$
>  <compound>
O=S1(=O)CC2(CC(Nc3nccc(-c4sc(N5C6CCC5CN(CC(F)(F)F)C6)nc4-c4cccc(NS(=O)(=O)N5Cc6cccc(C(F)F)c6C5)c4F)n3)C2)C1 [Example 49]

>  <prefix operator>
=

>  <IC50 / nM>
137

$$$$
>  <compound>
O=S1(=O)CC2(CC(Nc3nccc(-c4sc(C56CC(C5)C6)nc4-c4cccc(NS(=O)(=O)N5CCc6ccc(OC(F)(F)F)cc65)c4F)n3)C2)C1 [Example 36]

>  <prefix operator>
=

>  <IC50 / nM>
195

$$$$
>  <compound>
CC1(c2nc(-c3cccc(NS(=O)(=O)N4Cc5ccc(CO)cc5C4)c3F)c(-c3ccnc(N[C@H]4[C@@H]5CS(=O)(=O)C[C@@H]54)n3)s2)CCOCC1 [Example 12]

>  <prefix operator>
=

>  <IC50 / nM>
47.8

$$$$
>  <compound>
CC(C)(C)c1nc(-c2cccc(NS(=O)(=O)N3Cc4ccc(F)cc4C3)c2F)c(-c2ccnc(NC3CCN(S(C)(=O)=O)CC3)n2)s1 [Example 70]

>  <prefix operator>
=

>  <IC50 / nM>
94

$$$$
>  <compound>
CN(C)CCN(C)S(=O)(=O)N1CCC(Nc2nccc(-c3sc(C(C)(C)C)nc3-c3cccc(NS(=O)(=O)N4Cc5ccccc5C4)c3F)n2)CC1 [Example 156]

>  <prefix operator>
=

>  <IC50 / nM>
90.3

$$$$
>  <compound>
CC(C)(C)c1nc(-c2cccc(NS(=O)(=O)N3CCc4c(CC#N)cccc43)c2F)c(-c2ccnc(NC3CC4(C3)CS(=O)(=O)C4)n2)s1 [Example 238]

>  <prefix operator>
=

>  <IC50 / nM>
295

$$$$
>  <compound>
CC(C)(C)c1nc(-c2cccc(NS(=O)(=O)N3Cc4cccnc4C3)c2F)c(-c2ccnc(NC3CCN(S(=O)(=O)N4CCNCC4)CC3)n2)s1 [Example 132]

>  <prefix operator>
=

>  <IC50 / nM>
310

$$$$
>  <compound>
CC(C)(C)c1nc(-c2cccc(NS(=O)(=O)N3Cc4ccccc4C3)c2F)c(-c2ccnc(NC3CCN(S(=O)(=O)N4CCNCC4)CC3)n2)s1 [Example 113]

>  <prefix operator>
=

>  <IC50 / nM>
120

$$$$
>  <compound>
CC(C)(C)c1nc(-c2cccc(NS(=O)(=O)N3Cc4cccc(Oc5ccccc5)c4C3)c2F)c(-c2ccnc(NC3CC4(C3)CS(=O)(=O)C4)n2)s1 [Example 210]

>  <prefix operator>
=

>  <IC50 / nM>
505

$$$$
>  <compound>
O=S1(=O)CC2(CC(Nc3nccc(-c4sc(C56CC(C5)C6)nc4-c4cccc(NS(=O)(=O)N5CCc6ccc(Cl)cc65)c4F)n3)C2)C1 [Example 21]

>  <prefix operator>
=

>  <IC50 / nM>
55.7

$$$$
>  <compound>
CC(C)(C)c1nc(-c2cccc(NS(=O)(=O)N3Cc4ccccc4C34CC4)c2F)c(-c2ccnc(NC3CCN(S(C)(=O)=O)CC3)n2)s1 [Example 256]

>  <prefix operator>
=

>  <IC50 / nM>
3080

$$$$
>  <compound>
Cn1cc2c(n1)CN(S(=O)(=O)Nc1cccc(-c3nc(C(C)(C)C)sc3-c3ccnc(NC4CCN(S(C)(=O)=O)CC4)n3)c1F)C2 [Example 86]

>  <prefix operator>
=

>  <IC50 / nM>
484

$$$$
>  <compound>
CCN(C)S(=O)(=O)Nc1cccc(-c2nc(C(C)(C)C)sc2-c2ccnc(NC3CC4(C3)CS(=O)(=O)C4)n2)c1F [Example 194]

>  <prefix operator>
=

>  <IC50 / nM>
1850

$$$$
>  <compound>
CC(C)(C)c1nc(-c2cccc(NS(=O)(=O)N3CCCc4ccccc4C3)c2F)c(-c2ccnc(NC3CCN(S(C)(=O)=O)CC3)n2)s1 [Example 80]

>  <prefix operator>
=

>  <IC50 / nM>
172

$$$$
>  <compound>
CS(=O)(=O)[C@H]1CC[C@H](Nc2nccc(-c3sc(C45CC(F)(C4)C5)nc3-c3cccc(NS(=O)(=O)N4CCc5ccc(C(F)(F)F)cc54)c3F)n2)CC1 [Example 276]

>  <prefix operator>
=

>  <IC50 / nM>
192

$$$$
>  <compound>
O=S1(=O)CC2(CC(Nc3nccc(-c4sc(C56CC(C(F)F)(C5)C6)nc4-c4cccc(NS(=O)(=O)N5CCc6ccc(C(F)(F)F)cc65)c4F)n3)C2)C1 [Example 278]

>  <prefix operator>
=

>  <IC50 / nM>
103

$$$$
>  <compound>
O=S1(=O)CC2(CC(Nc3nccc(-c4sc(C5(C(F)(F)F)CC5)nc4-c4cccc(NS(=O)(=O)N5CCc6ccc(Cl)cc65)c4F)n3)C2)C1 [Example 287]

>  <prefix operator>
=

>  <IC50 / nM>
347

$$$$
>  <compound>
CN1CC2CCC(C1)N2c1nc(-c2cccc(NS(=O)(=O)N3CCc4ccc(C(F)(F)F)cc43)c2F)c(-c2ccnc(NC3CC4(C3)CS(=O)(=O)C4)n2)s1 [Example 292]

>  <prefix operator>
=

>  <IC50 / nM>
29.9

$$$$
>  <compound>
CC(C)(C)c1nc(-c2cccc(NS(=O)(=O)N3CCc4ccc(C#N)cc43)c2F)c(-c2ccnc(N[C@H]3[C@@H]4CS(=O)(=O)C[C@@H]43)n2)s1 [Example 223]

>  <prefix operator>
=

>  <IC50 / nM>
89

$$$$
>  <compound>
O=S1(=O)CC2(CC(Nc3nccc(-c4sc(C5(C(F)(F)F)CC5)nc4-c4cccc(NS(=O)(=O)N5CCc6ccc(C(F)(F)F)cc65)c4F)n3)C2)C1 [Example 286]

>  <prefix operator>
=

>  <IC50 / nM>
574

$$$$
>  <compound>
CN(C)C(=O)c1ccc2c(c1)CN(S(=O)(=O)Nc1cccc(-c3nc(C(C)(C)C)sc3-c3ccnc(NC4CCN(S(C)(=O)=O)CC4)n3)c1F)C2 [Example 161]

>  <prefix operator>
=

>  <IC50 / nM>
1800

$$$$
>  <compound>
CC(C)(C)c1nc(-c2cccc(NS(=O)(=O)N3CCC4(CC4)C3)c2F)c(-c2ccnc(NC3CC4(C3)CN(S(C)(=O)=O)C4)n2)s1 [Example 199]

>  <prefix operator>
>

>  <IC50 / nM>
3840

$$$$
